From: PubChem BioAssay AID1159580

protocol_text: chemical genetic growth profiling, strain panel (AID 1159580);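 further: tested at 20 µM; growth read once vehicle control cultures reached saturation at 30 °C; 1 = growth at the plate median or of vehicle wells; lower values mean less growth of the strain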
protocol_conditions: S. cerevisiae deletion strains, growth OD, locus YJL129C, strain trk1
Out of some 5,500 compounds screened, about 2,000 (36%) were called active. About 18% were inconclusive and are not listed. No stated cut-off is given here; in the data, active means normalized growth mostly below about 0.91 (no sharp cut-off); inconclusive means no clear call, values can overlap the other calls; inactive means mostly above about 0.92. The list shows a part of the results.
Possible outcomes: true = active, false = inactive

INSERT INTO results (molecule, class_assignment) VALUES
  ('Clc1ccc(COC(Cn2ccnc2)c2ccc(Cl)cc2Cl)cc1 (configuration not stated)', 'true'),
  ('C1N2CN3CN1CN(C2)C3', 'false'),
  ('CC(C)c1nc(N(C)S(C)(=O)=O)nc(-c2ccc(F)cc2)c1/C=C/[C@@H](O)C[C@@H](O)CC(=O)O', 'false'),
  ('CC(=O)OCC(=O)[C@@]1(O)CCC2C3CCC4=CC(=O)C=CC4(C)C3[C@@H](O)C[C@@]21C (some centres not stated)', 'false'),
  ('NC1(C(=O)O)CCCC1', 'false'),
  ('Clc1ccc(CSC(Cn2ccnc2)c2ccc(Cl)cc2Cl)cc1 (configuration not stated)', 'true'),
  ('NC1(C(=O)O)CC1', 'false');

* * *

protocol_text: chemical genetic growth profiling, strain panel (AID 1159580);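 further: tested at 20 µM; growth read once vehicle control cultures reached saturation at 30 °C; 1 = growth at the plate median or of vehicle wells; lower values mean less growth of the strain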
protocol_conditions: S. cerevisiae deletion strains, growth OD, locus YKL160W, strain elf1, active compounds read low
Out of some 5,500 compounds screened, about 2,000 (36%) were called active. Not shown: some 18% with an inconclusive outcome. This is one part of the list.
endpoint_name: normalized growth

INSERT INTO assay_data (molecule, endpoint_name, recorded_number) VALUES
  ('O=C(O)C1CCCNC1 (centres undefined)', 'normalized growth', 1.01),
  ('Clc1ccc(C(c2ccccc2Cl)C(Cl)Cl)cc1 (centres undefined)', 'normalized growth', 0.923),
  ('CC1(C)N([O-])[N+](=O)C1(C)Br (centres undefined)', 'normalized growth', 0.998),
  ('CN1CCC[C@@H]1CCO[C@](C)(c1ccccc1)c1ccc(Cl)cc1', 'normalized growth', 0.977),
  ('Nc1nc(F)nc2c1ncn2[C@@H]1O[C@H](COP(=O)(O)O)[C@@H](O)[C@@H]1O', 'normalized growth', 1),
  ('CC(=O)OC/C=C(\C)CC/C=C(\C)CC/C=C(\C)CC/C=C(\C)CC/C=C(\C)CC/C=C(\C)CC/C=C(\C)CC/C=C(\C)CCC=C(C)C', 'normalized growth', 0.98),
  ('CC1C/C=C/C=C/C=C/C=C/C(O[C@@H]2O[C@H](C)[C@@H](O)[C@H](N)[C@@H]2O)CC2OC(O)(CC(O)CC3OC3/C=C/C(=O)O1)CC(O)C2C(=O)O (some centres undefined)', 'normalized growth', 1.04),
  ('CC(=O)OCC(=O)[C@@]1(O)CCC2C3CCC4=CC(=O)C=CC4(C)C3[C@@H](O)C[C@@]21C (some centres undefined)', 'normalized growth', 0.973),
  ('Cc1onc(-c2ccccc2)c1-c1ccc(S(N)(=O)=O)cc1', 'normalized growth', 1);

* * *

protocol_text: chemical genetic growth profiling, strain panel (AID 1159580);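 further: tested at 20 µM; growth read once vehicle control cultures reached saturation at 30 °C; 1 = growth at the plate median or of vehicle wells; lower values mean less growth of the strain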
protocol_conditions: S. cerevisiae deletion strains, growth OD, locus YJL164C, strain tpk1
Among all 5,500 compounds or so, about 2,000 (36%) were called active. Inconclusive results (about 18%) are left out. Rule as the data show it: active = normalized growth mostly below about 0.91 (no sharp cut-off); inconclusive = no clear call, values can overlap the other calls; inactive = mostly above about 0.92. This is one part of the list.
Possible outcomes: active, inactive

INSERT INTO measurements (compound, class_assignment) VALUES
  ('Clc1ccc(COC(Cn2ccnc2)c2ccc(Cl)cc2Cl)c(Cl)c1 (stereo not drawn)', 'active'),
  ('Clc1ccc(CSC(Cn2ccnc2)c2ccc(Cl)cc2Cl)cc1 (stereo not drawn)', 'active'),
  ('O=c1cccc2n1CC1CC2CN2CCCC[C@@H]12 (stereo partly drawn)', 'inactive'),
  ('Clc1ccc(COC(Cn2ccnc2)c2ccc(Cl)cc2Cl)cc1 (stereo not drawn)', 'active'),
  ('Cc1oncc1C(=O)Nc1ccc(C(F)(F)F)cc1', 'inactive'),
  ('NCC[C@@H](O)C(=O)N[C@@H]1C[C@H](N)[C@@H](O[C@H]2O[C@H](CN)[C@@H](O)[C@H](O)[C@H]2O)[C@H](O)[C@H]1O[C@H]1O[C@H](CO)[C@@H](O)[C@H](N)C1O (stereo partly drawn)', 'inactive'),
  ('COC(=O)/C(C)=C\CC12OC(C)(C)C3CC(C=C4C(=O)c5c(OC)c6c(c(CC=C(C)C)c5OC431)OC(C)(CCC=C(C)C)C=C6)C2=O (stereo not drawn)', 'inactive'),
  ('CC(=O)Oc1c2c(c3c(c1CC=C(C)C)O[C@]14C(=C[C@@H]5CC1C(C)(C)OC4(C/C=C(\C)C(=O)O)C5=O)C3=O)OC(C)(CCC=C(C)C)C=C2 (stereo partly drawn)', 'inactive');
